Ref: patent US20250197451A1

- test system: T1, biotin-labelled EZH2 protein (UniProt Q15910 1-746, limits assumed, biotin label (EZ-link NHS-PEO4-Biotinylation kit))
- T1 construct: Probe in solution (1 ug/ml) on the KDM2B peptide microarray; also called NHS-PEO4-Biotinylation-labelled EZH2 protein; recombinant protein
- T1 sequence (Q15910 whole entry): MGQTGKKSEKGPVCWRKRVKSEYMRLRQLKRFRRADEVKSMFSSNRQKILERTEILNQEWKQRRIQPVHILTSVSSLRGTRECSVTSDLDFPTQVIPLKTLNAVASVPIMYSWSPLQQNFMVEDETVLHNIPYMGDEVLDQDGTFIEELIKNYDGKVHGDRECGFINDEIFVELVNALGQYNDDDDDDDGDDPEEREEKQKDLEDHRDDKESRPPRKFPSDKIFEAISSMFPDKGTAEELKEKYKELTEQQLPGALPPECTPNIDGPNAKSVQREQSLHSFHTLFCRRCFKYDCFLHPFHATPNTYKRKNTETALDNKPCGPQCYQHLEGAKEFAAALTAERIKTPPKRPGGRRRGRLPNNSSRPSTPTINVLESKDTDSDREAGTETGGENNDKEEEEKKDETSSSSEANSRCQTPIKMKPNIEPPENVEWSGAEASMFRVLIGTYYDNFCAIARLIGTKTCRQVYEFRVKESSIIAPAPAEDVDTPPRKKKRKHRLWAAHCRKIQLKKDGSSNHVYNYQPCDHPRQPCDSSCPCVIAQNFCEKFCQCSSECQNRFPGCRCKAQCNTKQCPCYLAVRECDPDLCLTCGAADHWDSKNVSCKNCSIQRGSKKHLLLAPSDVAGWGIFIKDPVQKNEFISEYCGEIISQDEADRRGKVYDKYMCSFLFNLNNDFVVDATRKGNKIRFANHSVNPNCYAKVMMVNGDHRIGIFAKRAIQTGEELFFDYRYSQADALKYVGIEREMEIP
- protocol summary: KDM2B peptide array probed with biotin-EZH2 1 ug/ml, SA-HRP/ECL;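 further: 100% is the highest background-corrected spot optical density on the membrane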;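 further: Background-corrected optical density of each spot on the membrane, given as percent of the brightest spot (100%), color developed for 5 minutes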
Please respond with criterion met when measured Intensity (%) is strictly beneath 0.9%, and with criterion not met in all other cases.

Use the examples below as a reference point.
1. MECSICNEIIHPGCL [peptide 138]
criterion not met
2. LRFLKRTLSNESEES [peptide 94]
criterion met
3. VTDQSINLLTAVGTT [peptide 251]
criterion met
4. RCGNICHIDLRYCKQ [peptide 259]
criterion not met
5. KQGYTFFIPSGWIHA [peptide 61]
criterion met

## Task Here's an entry: NRLPGLRDLVLSGCS [peptide 230] . Is its Intensity (%) below 0.9%?
## Result criterion not met

## Task For RLIIRHMPLLSKLHL [peptide 247] then?
## Result criterion not met

## Task Now give it for LSPRPPLGSSLSPWW [peptide 167] too.
## Result criterion met

## Task Entry to check: ANENQQPIKSEPESE [peptide 194]
## Result criterion met

## Task One more binder: TPKNRAVGRPKGKLG [peptide 116]
## Result criterion met

## Task Another: KIKESEGVVNDELPN [peptide 141]
## Result criterion not met

## Task Now give it for QPIKSEPESEGEEPK [peptide 195] too.
## Result criterion not met

## Task And what about the binder PKAPALRFLKRTLSN [peptide 93] ?
## Result criterion met

## Task Param item: RRSDEHSKKVPPDGL [peptide 156]
## Result criterion met
